molecular target: Fatty acid synthase (Homo sapiens); experiment: inhibition of human FAS-TE enzyme activity – biochemical, kinetic fluorescence intensity, dose response (AID 624326); assay type: functional;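 also: rate of fluorescence rise from hydrolysis of a fluorogenic O-methyl fluorescein ester substrate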
Sequence (P49327 whole entry): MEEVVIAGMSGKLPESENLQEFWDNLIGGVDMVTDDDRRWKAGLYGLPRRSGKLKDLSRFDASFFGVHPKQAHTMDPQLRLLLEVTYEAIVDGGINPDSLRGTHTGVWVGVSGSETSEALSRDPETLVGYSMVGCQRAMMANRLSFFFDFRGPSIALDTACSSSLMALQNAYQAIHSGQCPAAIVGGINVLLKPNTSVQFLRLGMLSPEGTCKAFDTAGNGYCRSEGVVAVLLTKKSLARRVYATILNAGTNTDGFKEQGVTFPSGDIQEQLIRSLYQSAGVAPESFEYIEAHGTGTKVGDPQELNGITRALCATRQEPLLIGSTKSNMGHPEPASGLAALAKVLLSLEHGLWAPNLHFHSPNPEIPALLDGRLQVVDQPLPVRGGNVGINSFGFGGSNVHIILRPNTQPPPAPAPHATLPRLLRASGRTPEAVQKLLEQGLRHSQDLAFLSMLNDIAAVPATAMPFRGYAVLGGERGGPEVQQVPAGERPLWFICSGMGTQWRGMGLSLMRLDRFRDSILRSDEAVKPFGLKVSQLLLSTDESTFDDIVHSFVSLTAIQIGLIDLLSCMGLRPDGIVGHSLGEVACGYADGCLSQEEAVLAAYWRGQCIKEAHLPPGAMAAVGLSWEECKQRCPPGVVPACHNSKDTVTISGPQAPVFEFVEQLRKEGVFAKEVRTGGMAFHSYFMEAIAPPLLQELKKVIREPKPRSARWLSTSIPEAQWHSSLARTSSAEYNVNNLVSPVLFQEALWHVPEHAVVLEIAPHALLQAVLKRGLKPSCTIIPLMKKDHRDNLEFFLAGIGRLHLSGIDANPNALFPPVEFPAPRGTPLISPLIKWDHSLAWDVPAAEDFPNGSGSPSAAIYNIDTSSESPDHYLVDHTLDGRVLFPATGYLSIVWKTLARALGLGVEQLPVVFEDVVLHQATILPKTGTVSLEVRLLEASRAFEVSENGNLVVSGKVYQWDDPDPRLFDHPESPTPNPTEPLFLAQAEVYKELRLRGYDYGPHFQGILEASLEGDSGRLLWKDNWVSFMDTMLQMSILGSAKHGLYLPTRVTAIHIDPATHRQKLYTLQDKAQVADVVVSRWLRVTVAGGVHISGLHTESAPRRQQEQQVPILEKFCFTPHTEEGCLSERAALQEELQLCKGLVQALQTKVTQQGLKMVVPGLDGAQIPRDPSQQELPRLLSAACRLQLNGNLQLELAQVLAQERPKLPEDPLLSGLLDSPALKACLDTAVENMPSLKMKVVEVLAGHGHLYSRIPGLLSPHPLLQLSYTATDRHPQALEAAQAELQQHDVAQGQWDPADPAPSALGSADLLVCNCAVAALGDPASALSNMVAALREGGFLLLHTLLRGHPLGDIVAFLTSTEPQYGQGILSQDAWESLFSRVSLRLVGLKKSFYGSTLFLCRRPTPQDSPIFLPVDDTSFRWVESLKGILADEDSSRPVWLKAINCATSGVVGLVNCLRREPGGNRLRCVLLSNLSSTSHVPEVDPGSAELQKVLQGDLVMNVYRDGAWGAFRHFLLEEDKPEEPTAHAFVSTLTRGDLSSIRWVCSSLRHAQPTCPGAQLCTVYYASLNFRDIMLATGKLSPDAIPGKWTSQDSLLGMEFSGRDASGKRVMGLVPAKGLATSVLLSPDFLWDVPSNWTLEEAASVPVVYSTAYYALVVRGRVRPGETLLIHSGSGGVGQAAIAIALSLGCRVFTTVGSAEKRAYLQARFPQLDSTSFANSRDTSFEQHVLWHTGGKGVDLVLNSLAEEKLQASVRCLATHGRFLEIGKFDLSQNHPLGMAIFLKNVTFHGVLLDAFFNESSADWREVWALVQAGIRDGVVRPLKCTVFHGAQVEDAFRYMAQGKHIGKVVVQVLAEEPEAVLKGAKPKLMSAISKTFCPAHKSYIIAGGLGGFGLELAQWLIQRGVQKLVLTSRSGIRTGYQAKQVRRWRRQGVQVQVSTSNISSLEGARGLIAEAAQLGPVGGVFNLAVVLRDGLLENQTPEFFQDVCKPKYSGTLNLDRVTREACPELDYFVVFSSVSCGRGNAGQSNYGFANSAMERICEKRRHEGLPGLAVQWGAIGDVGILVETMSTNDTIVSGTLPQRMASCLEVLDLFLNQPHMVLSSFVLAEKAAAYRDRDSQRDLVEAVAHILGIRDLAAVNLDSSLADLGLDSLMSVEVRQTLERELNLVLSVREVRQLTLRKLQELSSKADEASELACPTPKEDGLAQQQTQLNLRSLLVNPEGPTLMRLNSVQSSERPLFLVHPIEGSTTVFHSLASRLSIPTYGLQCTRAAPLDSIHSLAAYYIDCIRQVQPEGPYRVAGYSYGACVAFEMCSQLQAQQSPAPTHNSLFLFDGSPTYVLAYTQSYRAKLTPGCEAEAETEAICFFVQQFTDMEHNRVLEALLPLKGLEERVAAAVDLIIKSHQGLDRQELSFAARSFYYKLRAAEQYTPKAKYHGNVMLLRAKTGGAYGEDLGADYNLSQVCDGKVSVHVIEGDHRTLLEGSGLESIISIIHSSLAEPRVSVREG
The source made the active and inactive calls. Rule as the data show it: active = IC50 of 20 µM or less and inactive = more.
Parameter IC50: see the listing below.

Recorded IC50, per entry:
| COMPOUND | TARGET_OR_SYSTEM | ENDPOINT_RESULT |
| --- | --- | --- |
| C[C@@]12C(=O)Nc3ccccc3C(=O)N1[C@H]1c3cc(Br)ccc3OC[C@@H]1[C@@H]2c1ccccc1 | Fatty acid synthase (Homo sapiens) | 11.8 µM (active) |
| O=C(NCCOc1ccccc1)c1cc(C(=O)NCCOc2ccccc2)cc([N+](=O)[O-])c1 | Fatty acid synthase (Homo sapiens) | 2.75 µM (active) |
| COc1ccc(-n2c(SCc3ccc([N+](=O)[O-])cc3)nnc2-c2ccccc2)cc1 | Fatty acid synthase (Homo sapiens) | 3.44 µM (active) |

Name the reported IC50 value associated with the compound `O=C(COC(=O)c1cc([N+](=O)[O-])ccc1N1CCOCC1)Nc1cc(F)ccc1F`
1.57 µM (active)

Name the reported IC50 value associated with the compound `N#Cc1c(-c2ccccc2)c(-c2ccccc2)nn(CC(=O)NNC(=O)Nc2ccc(Cl)c(Cl)c2)c1=O`
8.07 µM (active)

Name the reported IC50 value associated with the compound `Cc1csc(NC(=O)C2CCN(S(=O)(=O)c3ccc4c(c3)oc(=O)n4C)CC2)n1`
6.81 µM (active)

The measurements presented in this section are drawn from ChEMBL document CHEMBL1201862.
